Epidermal growth factor receptor (Homo sapiens, UniProt P00533, L858R/T790M) data, read-out IC50
Sequence (P00533 25-1210 T790M/L858R limits assumed): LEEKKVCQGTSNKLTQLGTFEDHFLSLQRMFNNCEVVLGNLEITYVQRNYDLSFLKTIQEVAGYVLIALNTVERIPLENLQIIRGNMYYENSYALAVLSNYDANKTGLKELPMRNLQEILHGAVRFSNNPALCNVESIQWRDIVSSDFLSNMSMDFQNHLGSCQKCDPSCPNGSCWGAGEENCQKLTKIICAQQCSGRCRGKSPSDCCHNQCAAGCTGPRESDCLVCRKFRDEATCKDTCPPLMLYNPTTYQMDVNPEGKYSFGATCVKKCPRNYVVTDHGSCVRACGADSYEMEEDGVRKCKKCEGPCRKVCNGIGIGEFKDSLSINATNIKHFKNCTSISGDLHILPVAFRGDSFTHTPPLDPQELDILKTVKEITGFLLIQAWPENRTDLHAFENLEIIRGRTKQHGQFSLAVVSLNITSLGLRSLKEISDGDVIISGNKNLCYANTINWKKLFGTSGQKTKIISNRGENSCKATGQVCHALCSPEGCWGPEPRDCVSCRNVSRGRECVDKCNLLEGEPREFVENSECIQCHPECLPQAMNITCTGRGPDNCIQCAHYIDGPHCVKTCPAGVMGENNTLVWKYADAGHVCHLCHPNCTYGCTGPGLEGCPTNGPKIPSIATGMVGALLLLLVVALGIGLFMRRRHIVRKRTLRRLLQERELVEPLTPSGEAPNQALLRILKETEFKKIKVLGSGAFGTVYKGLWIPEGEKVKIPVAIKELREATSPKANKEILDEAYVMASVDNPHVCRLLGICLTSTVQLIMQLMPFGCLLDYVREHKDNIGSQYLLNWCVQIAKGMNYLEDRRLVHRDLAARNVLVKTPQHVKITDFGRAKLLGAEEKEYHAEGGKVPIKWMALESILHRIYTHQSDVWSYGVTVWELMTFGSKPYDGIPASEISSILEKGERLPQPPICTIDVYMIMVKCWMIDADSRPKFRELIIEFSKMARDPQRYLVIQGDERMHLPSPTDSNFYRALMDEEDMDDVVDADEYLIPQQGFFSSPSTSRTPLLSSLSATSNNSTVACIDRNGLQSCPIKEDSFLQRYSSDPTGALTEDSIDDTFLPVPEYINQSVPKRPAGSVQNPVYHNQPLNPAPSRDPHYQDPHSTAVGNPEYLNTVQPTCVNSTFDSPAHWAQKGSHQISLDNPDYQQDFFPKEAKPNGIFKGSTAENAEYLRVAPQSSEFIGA
# value in nM; strip the unit string

Previously resolved entries follow.
I'd like to know its IC50. The molecule in question is C=CC(=O)Nc1ccc(OC)c(Nc2cc(-c3[nH]c(SC)nc3C(C)(C)C)ccn2)c1 485

Try the molecule C=CC(=O)N1CCC(Sc2nc(-c3ccc(F)cc3)c(-c3ccnc(Nc4ccccc4)c3)[nH]2)C1 (centres undefined) 417

What do we get for C=CC(=O)Nc1ccc(OC)c(Nc2cc(-c3[nH]c(SC)nc3C3CCCC3)ccn2)c1 ? 4.5

What would you report for Fc1ccc(-c2nc(SCCN3CCOCC3)[nH]c2-c2ccnc(Nc3ccccc3)c2)cc1 ? 1250

Also need C=CC(=O)Nc1ccc(OC)c(Nc2cc(-c3[nH]c(SC)nc3C3CC3)ccn2)c1 , thanks. 7.4

Consider next the molecule C=CC(=O)Nc1cccc(Nc2cc(-c3[nH]c(SC)nc3-c3ccc(F)cc3)ccn2)n1 in the same way. 3.1

Subsequent entry: CN(C)C/C=C/C(=O)NCCSc1nc(-c2ccc(F)cc2)c(-c2ccnc(Nc3ccccc3)c2)[nH]1 18

Now for a further molecule.
# get_value(readout='IC50', item= OCCSc1nc(-c2ccc(F)cc2)c(-c2ccnc(Nc3ccccc3)c2)[nH]1 ) 83

---

- assay_system: Epidermal growth factor receptor (Homo sapiens)
pIC50: −log10 of the molar value.
readout_type: pIC50

Which pIC50 value is on record for C=CC(=O)Nc1cc(Nc2cc(-c3[nH]c(SC)nc3-c3ccc(F)cc3)ccn2)cc(N2CCN(C)CC2)c1 ? > 9.00

And what about the compound C=CC(=O)Nc1ccc(OC)c(Nc2cc(-c3[nH]c(SC)nc3C3CCC3)ccn2)c1 ? > 9.00

And what about the compound C=CC(=O)Nc1ccc(OC)c(Nc2cc(-c3[nH]c(SC)nc3-c3ccc4ccccc4c3)ccn2)c1 ? > 9.00

---

- assay_system: Epidermal growth factor receptor (Homo sapiens, UniProt P00533, L858R)
- Sequence (P00533 25-1210 L858R limits assumed): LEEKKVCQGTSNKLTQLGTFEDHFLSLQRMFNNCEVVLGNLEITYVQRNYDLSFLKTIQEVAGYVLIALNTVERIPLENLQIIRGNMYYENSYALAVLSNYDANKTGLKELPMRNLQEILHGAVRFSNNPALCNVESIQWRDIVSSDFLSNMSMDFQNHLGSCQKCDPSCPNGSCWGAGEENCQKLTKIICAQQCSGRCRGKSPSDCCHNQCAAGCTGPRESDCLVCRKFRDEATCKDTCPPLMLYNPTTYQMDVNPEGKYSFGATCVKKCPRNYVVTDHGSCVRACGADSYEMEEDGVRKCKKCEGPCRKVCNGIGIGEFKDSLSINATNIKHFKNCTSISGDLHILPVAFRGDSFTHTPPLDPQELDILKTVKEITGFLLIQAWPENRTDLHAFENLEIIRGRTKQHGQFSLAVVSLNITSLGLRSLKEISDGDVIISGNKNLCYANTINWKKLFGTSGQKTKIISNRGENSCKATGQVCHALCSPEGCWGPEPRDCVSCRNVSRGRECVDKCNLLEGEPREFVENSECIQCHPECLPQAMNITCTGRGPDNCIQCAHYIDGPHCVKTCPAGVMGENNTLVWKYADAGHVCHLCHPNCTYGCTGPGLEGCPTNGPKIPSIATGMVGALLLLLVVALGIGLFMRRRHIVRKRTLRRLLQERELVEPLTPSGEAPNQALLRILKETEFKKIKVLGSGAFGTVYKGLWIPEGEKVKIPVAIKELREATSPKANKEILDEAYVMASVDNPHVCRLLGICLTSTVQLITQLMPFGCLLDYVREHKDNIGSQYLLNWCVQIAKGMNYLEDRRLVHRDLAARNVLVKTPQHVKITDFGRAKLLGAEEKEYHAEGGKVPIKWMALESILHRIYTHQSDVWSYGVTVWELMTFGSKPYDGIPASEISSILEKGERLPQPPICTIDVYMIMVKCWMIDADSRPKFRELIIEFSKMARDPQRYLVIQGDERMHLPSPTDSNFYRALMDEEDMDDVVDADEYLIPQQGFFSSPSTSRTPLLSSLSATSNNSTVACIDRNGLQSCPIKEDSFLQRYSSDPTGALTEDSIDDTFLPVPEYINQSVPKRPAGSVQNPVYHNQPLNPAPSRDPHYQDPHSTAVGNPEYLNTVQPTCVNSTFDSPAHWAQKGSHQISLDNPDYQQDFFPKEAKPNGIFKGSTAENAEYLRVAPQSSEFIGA
# IC50 per record follows

In the examples that follow, each entry is paired with its recorded IC50.
Reported IC50, compound C=CC(=O)Nc1ccc(OC)c(Nc2cc(-c3[nH]c(CCCO)nc3-c3ccc(F)cc3)ccn2)c1 : ____ < 1 nM

Another compound to check: CCC(=O)Nc1cccc(Nc2cc(-c3[nH]c(SC)nc3-c3ccc(F)cc3)ccn2)c1 6.8 nM

Continue with the next compound.
// returns reported IC50 for input C=CC(=O)Nc1ccc(OC)c(Nc2cc(-c3[nH]c(SC)nc3C(C)(C)C)ccn2)c1 16 nM

---

Recorded below: IC50, system Epidermal growth factor receptor (Homo sapiens, UniProt P00533).

// solved cases for IC50 follow
What value of IC50 has been reported for the following compound? C=CC(=O)Nc1cc(Nc2cc(-c3[nH]c(SC)nc3-c3ccc(F)cc3)ccn2)cc(N2CCOCC2)c1 < 1 nM

Entry C=CC(=O)Nc1ccc(OC)c(Nc2cc(-c3[nH]c(SC)nc3-c3cccs3)ccn2)c1 please < 1 nM

Now this one: C=CC(=O)Nc1ccc(OC)c(Nc2cc(-c3[nH]c(CCCO)nc3-c3ccc(F)cc3)ccn2)c1 < 1 nM

Further cases:
Look at this compound and give its reported IC50. C=CC(=O)Nc1cccc(Nc2cc(-c3[nH]c(SC)nc3-c3ccc(F)cc3)ccn2)n1 < 1 nM

Next: CCC(=O)Nc1ccc(OC)c(Nc2cc(-c3[nH]c(CCCO)nc3-c3ccc(F)cc3)ccn2)c1 < 1 nM

Entry to check: CCC(=O)Nc1ccc(OC)c(Nc2cc(-c3[nH]c(SC)nc3-c3ccc(F)cc3)ccn2)c1 < 1 nM

Record: C=CC(=O)NCCSc1nc(-c2ccccc2)c(-c2ccnc(Nc3ccccc3)c2)[nH]1 12 nM

Check C=CC(=O)Nc1ccc(OC)c(Nc2cc(-c3[nH]c(SC)nc3C3CC3)ccn2)c1 too. 2.3 nM

Next entry: CCC(=O)Nc1ccc(OC)c(Nc2cc(-c3cnc(SC)[nH]3)ccn2)c1 1770 nM

---

- assay_system: Epidermal growth factor receptor (Homo sapiens, UniProt P00533, L858R/T790M)
Reported pIC50 is given for each of the following compounds.
Recall that pIC50 is obtained by taking minus log10 of the concentration measured in molar.

Look over these answered cases.
Requested field: pIC50. Item: C=CC(=O)NCCSc1nc(-c2ccccc2)c(-c2ccnc(Nc3ccccc3)c2)[nH]1 7.54

Next entry: CCC(=O)Nc1cccc(Nc2cc(-c3[nH]c(SC)nc3-c3ccc(F)cc3)ccn2)c1 7.03

Let us now turn to CSc1nc(-c2ccc(F)cc2)c(-c2ccnc(Nc3cc(F)cc([N+](=O)[O-])c3)c2)[nH]1 6.23

Further cases:
If you can, please state the reported pIC50 value of N#CCCSc1nc(-c2ccc(F)cc2)c(-c2ccnc(Nc3ccccc3)c2)[nH]1 . 6.13

Now try C=CC(=O)Nc1ccc(OC)c(Nc2cc(-c3[nH]c(SC)nc3-c3ccc4ccccc4c3)ccn2)c1 . 8.96

What about C=CC(=O)NCCSc1nc(-c2ccc(F)c(C(F)(F)F)c2)c(-c2ccnc(Nc3ccccc3)c2)[nH]1 ? 6.19

NCCCSc1nc(-c2ccc(F)cc2)c(-c2ccnc(Nc3ccccc3)c2)[nH]1 ? 6.62

---

- assay_system: Epidermal growth factor receptor (Homo sapiens, UniProt P00533, L858R/T790M)
pIC50: −log10 of the molar value.
readout_type: pIC50

Record request: pIC50 value, item CCC(=O)Nc1ccc(OC)c(Nc2cc(-c3[nH]c(CCCO)nc3-c3ccc(F)cc3)ccn2)c1 > 9.00

***
Would you mind telling me what pIC50 value was observed for C=CC(=O)Nc1ccc(OC)c(Nc2cc(-c3[nH]c(SC)nc3-c3cccs3)ccn2)c1 ? > 9.00

Same question, C=CC(=O)Nc1cc(Nc2cc(-c3[nH]c(SC)nc3-c3ccc(F)cc3)ccn2)cc(N2CCN(C)CC2)c1 this time > 9.00

Origin of the recorded values: ChEMBL document CHEMBL4011631
